assay: Solubility of Compound I maleate salt in solvents (saturated solution, HPLC); assay type: physicochemical; settings: 50 °C, organic solvent or mixture, thermodynamic from solid; solvent IPAc; 50±1° C., 24 hours
Counter-ions that a name gives are not always drawn.

{"compound": "CC(C)C(=O)N1CCC(c2cc(-c3ccc(NC(=O)c4cn(C(C)C)c(=O)n(-c5ccccn5)c4=O)cc3)c3c(N)ncnn23)CC1 [Compound I maleate salt]", "solubility at 24 h / µg/mL": 330}

###

test: Solubility of Compound I maleate salt in solvents (saturated solution, HPLC); type: physicochemical; conditions: 25 °C, organic solvent or mixture, thermodynamic from solid; solvent n-BuOH; 25±1° C., 48 hours
Counter-ions that a name gives are not always drawn.

{"compound": "CC(C)C(=O)N1CCC(c2cc(-c3ccc(NC(=O)c4cn(C(C)C)c(=O)n(-c5ccccn5)c4=O)cc3)c3c(N)ncnn23)CC1 [Compound I maleate salt]", "solubility at 48 h / µg/mL": 210}

###

test: Solubility of Compound I maleate salt in solvents (saturated solution, HPLC); assay type: physicochemical; conditions: 25 °C, organic solvent or mixture, thermodynamic from solid; solvent Dichloromethane; 25±1° C., 48 hours
Where a name gives a salt, the structure may show the parent alone.

{"molecule": "CC(C)C(=O)N1CCC(c2cc(-c3ccc(NC(=O)c4cn(C(C)C)c(=O)n(-c5ccccn5)c4=O)cc3)c3c(N)ncnn23)CC1 [Compound I maleate salt]", "solubility at 48 h / mg/mL": 24.4}

###

assay: Solubility of Compound I maleate salt in solvents (saturated solution, HPLC); assay type: physicochemical; conditions: 50 °C, organic solvent or mixture, thermodynamic from solid; solvent Acetone; 50±1° C., 24 hours
Counter-ions that a name gives are not always drawn.
readoutName: solubility at 24 h (µg/mL)

{"compound": "CC(C)C(=O)N1CCC(c2cc(-c3ccc(NC(=O)c4cn(C(C)C)c(=O)n(-c5ccccn5)c4=O)cc3)c3c(N)ncnn23)CC1 [Compound I maleate salt]", "unitName": "µg/mL", "observedValue": 3050}

###

test: Solubility of Compound I maleate salt in solvents (saturated solution, HPLC); format: physicochemical; conditions: 50 °C, organic solvent or mixture, thermodynamic from solid; solvent DMF; 50±1° C., 24 hours
Counter-ions that a name gives are not always drawn.
readoutName: solubility at 24 h

{"molecule": "CC(C)C(=O)N1CCC(c2cc(-c3ccc(NC(=O)c4cn(C(C)C)c(=O)n(-c5ccccn5)c4=O)cc3)c3c(N)ncnn23)CC1 [Compound I maleate salt]", "observedValue": "> 50 mg/mL"}

###

test: Solubility of Compound I maleate salt in solvents (saturated solution, HPLC); type: physicochemical; conditions: 25 °C, organic solvent or mixture, thermodynamic from solid; solvent MEK; 25±1° C., 48 hours
Counter-ions that a name gives are not always drawn.
readoutName: solubility at 48 h (µg/mL)

{"compound": "CC(C)C(=O)N1CCC(c2cc(-c3ccc(NC(=O)c4cn(C(C)C)c(=O)n(-c5ccccn5)c4=O)cc3)c3c(N)ncnn23)CC1 [Compound I maleate salt]", "observedValue": 280}

###

assay: Solubility of Compound I maleate salt in solvents (saturated solution, HPLC); type: physicochemical; details: 25 °C, organic solvent or mixture, thermodynamic from solid; solvent Chloroform; 25±1° C., 48 hours
Counter-ions that a name gives are not always drawn.

{"compound": "CC(C)C(=O)N1CCC(c2cc(-c3ccc(NC(=O)c4cn(C(C)C)c(=O)n(-c5ccccn5)c4=O)cc3)c3c(N)ncnn23)CC1 [Compound I maleate salt]", "unitName": "µg/mL", "solubility at 48 h": 6120}
